Kindly supply the reported normalized growth values for the records listed here.
Assay: chemical genetic growth profiling, strain panel (AID 1159580);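 note: tested at 20 µM; growth read once vehicle control cultures reached saturation at 30 °C; 1 = growth at the plate median or of vehicle wells; lower values mean less growth of the strain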
Conditions: S. cerevisiae deletion strains, growth OD, locus YLR342W, strain FKS1, active compounds read low
Among all 5,500 compounds or so, about 2,000 (36%) were called active. Not shown: some 18% with an inconclusive outcome. The list shows a part of the results.
Answers are plain numbers.

Look at each compound and report its normalized growth.
1. C[C@]12CCC3c4ccc(OS(=O)(=O)O)cc4CCC3C1CC[C@H]2O (stereo partly drawn)
2. O=c1ccc2c(O)c3ccoc3cc2o1
3. O=C1[O][Bi][O]c2ccccc21
4. Oc1cc2c(cc1O)C1c3ccc(O)c(O)c3OCC1(O)C2 (stereo not drawn)
5. CNC(C)C(O)c1ccccc1 (stereo not drawn)
6. CC(C)(C)NCC(O)c1cc(O)cc(O)c1 (stereo not drawn)
7. O=C(O)C1=C[C@@H](O)[C@@H](O)[C@H](O)C1
8. COc1ccc2ccc(=O)oc2c1

OUTPUT:
1: 0.987; 2: 0.984; 3: 1.01; 4: 0.979; 5: 1.02; 6: 0.991; 7: 0.985; 8: 1

###

Assay: chemical genetic growth profiling, strain panel (AID 1159580);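 note: tested at 20 µM; growth read once vehicle control cultures reached saturation at 30 °C; 1 = growth at the plate median or of vehicle wells; lower values mean less growth of the strain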
Details: S. cerevisiae deletion strains, growth OD, locus YJL129C, strain trk1
Out of some 5,500 compounds screened, about 2,000 (36%) were called active. Roughly 18% stayed inconclusive and do not appear here. Rule as the data show it: active = normalized growth mostly below about 0.91 (no sharp cut-off); inconclusive = no clear call, values can overlap the other calls; inactive = mostly above about 0.92. The list shows a part of the results.
Would you mind answering with one of these outcomes? Yes (active), No (inactive)

// below: answered molecules
CC(C1OC(C)(C)C(O)C1O)[C@@H]1CC[C@]2(C)C3=CCC4C(C)(C)C(=O)CC[C@]4(C)C3CC[C@@]12C (stereo not given in full) | No
CCOC(=O)c1c(C)cc(O)cc1O | No
COc1cc(OC)c2c(=O)c(OC)c(-c3ccc(OC)c(OC)c3)oc2c1 | No
COc1cc(O)c2c(=O)c(O)c(-c3ccc(O)c(O)c3)oc2c1 | Yes
COc1ccccc1/C=C\C(=O)O | No
Cc1cc(C2CCCCC2)n(O)c(=O)c1 | Yes

INPUT: Tell me the recorded outcome of this test for `CC(=O)OCC1=C(C(=O)O)N2C(=O)[C@@H](NC(=O)Cc3cccs3)[C@H]2SC1` .
OUTPUT: No

INPUT: Please give the result for `CC1(C)O[C@H]2CC(=O)OC[C@]23[C@H]2CC[C@@]4(C)[C@H](c5ccoc5)OC(=O)[C@H]5O[C@]54[C@]2(C)C(=O)C[C@@H]13` too.
OUTPUT: No

INPUT: Further, for `CN(C)c1ccc2nc3ccc(=[N+](C)C)cc-3sc2c1` ?
OUTPUT: No

INPUT: Queued: C[C@@H]1CC[C@@]2(OC1)OC1CC3C4CC=C5C[C@@H](O)CC[C@]5(C)C4CC[C@]3(C)C1[C@@H]2C (stereo not given in full)
OUTPUT: No

INPUT: Follow-up entry: `COC(=O)c1c(C)cc(OC)cc1O`
OUTPUT: No

INPUT: Same lookup for `COc1ccc(-c2oc3c(CC=C(C)C)c(O[C@@H]4O[C@H](CO)[C@@H](O)[C@H](O)[C@H]4O)cc(O)c3c(=O)c2O[C@@H]2O[C@@H](C)[C@H](O)[C@@H](O)[C@H]2O)cc1` , please.
OUTPUT: No

INPUT: Same question, CC1(C)C(=O)C=C[C@@]2(C)C1C=C[C@]1(C)C2CC[C@@]2(C)[C@H](c3ccoc3)OC(=O)C3OC321 (stereo not given in full) this time
OUTPUT: Yes

INPUT: One more molecule: `C=C[C@H]1CN2CC[C@H]1C[C@@H]2[C@@H](OC(=O)OCC)c1ccnc2ccc(OC)cc12`
OUTPUT: No

INPUT: Consider next the molecule `C=C(C)[C@H]1COc2cc3oc(=O)ccc3cc2O1` in the same way.
OUTPUT: Yes

Every entry's value here was drawn from PubChem BioAssay AID1159580.
